Test: Percentage of parent compound remaining after incubation for 30 minutes with cyropreserved human hepatocytes at a concentration of 1uM compound and 1 million cells/uL, determined by LCMS/MS
Format: ADME, tissue-based, Hepatocyte
Conditions: cryopreserved human hepatocytes, read-out: Stability
endpoint_label: remaining at 0.5 h, 1 µM (%)
A number alone suffices; assume %.

Past entries and their recorded results:
CC(C)c1nn2cnc(-c3cccc(C(F)(F)F)c3)cc2c1-c1c(F)cc(O)cc1F = 68.4
Oc1ccc(-c2cnc3cnc(-c4cccc(C(F)(F)F)c4)cn23)c(F)c1 = 31
Fc1ccc(-c2cn3c(-c4ccc5[nH]ncc5c4F)c(C4CC4)nc3cn2)cc1C(F)(F)F = 95.2
Cc1nc2cnc(-c3ccc(F)c(C(F)(F)F)c3)cn2c1-c1c(F)cc(O)cc1F = 34.3
CC(C)c1nc2cnc(-c3cccc(C(F)(F)F)c3)cn2c1-c1ccc2[nH]ncc2c1F = 83.1

Now turn to the next compound.
## Task Which remaining at 0.5 h, 1 µM value is on record for Oc1cc(F)c(-c2c(C3CC3)nc3cnc(-c4ccc(F)c(C(F)(F)F)c4)cn23)c(F)c1 ?
## Result 42.1
